Assay: Lipophilicity, log Kw of the compound by reversed-phase UHPLC analysis
Type: physicochemical
Settings: water/acetonitrile

Compound	logKw
COc1cc(C[C@H]2C(=O)OC[C@@H]2[C@H](O)c2ccc(O)c(OC)c2)ccc1O [HYDROXYMATAIRESINOL]	1.49
CCCCCCCCCCCC(=O)O[C@@H](c1ccc(O)c(OC)c1)[C@H]1COC(=O)[C@@H]1Cc1ccc(O)c(OC)c1	3.68
CCCCCCCCCCCC(=O)O[C@H](c1ccc(O)c(OC)c1)[C@H]1COC(=O)[C@@H]1Cc1ccc(O)c(OC)c1	3.63
CCCCCCCCCCCCCCCCCC(=O)O[C@H](c1ccc(O)c(OC)c1)[C@H]1COC(=O)[C@@H]1Cc1ccc(O)c(OC)c1	5.43
CCCCCCCC(=O)O[C@@H](c1ccc(O)c(OC)c1)[C@H]1COC(=O)[C@@H]1Cc1ccc(O)c(OC)c1	3.12
CCCCCCCC(=O)O[C@H](c1ccc(O)c(OC)c1)[C@H]1COC(=O)[C@@H]1Cc1ccc(O)c(OC)c1	3.06
CCCCCCCCCCCCCCCCCC(=O)O[C@@H](c1ccc(O)c(OC)c1)[C@H]1COC(=O)[C@@H]1Cc1ccc(O)c(OC)c1	5.5

====

Assay: Lipophilicity, log P of the compound
Format: physicochemical
Settings: octanol/water
Parameter: logP

Molecule	Recorded Result
CCCCCCCCOC(=O)c1cc(O)c(O)c(O)c1 [OCTYL_GALLATE]	4.1

====

# reported IC50; entries follow
Assay: Antioxidant activity assessed as DPPH radical scavenging activity at test compound/DPPH volume ratio 1:1 after 1 hr by UV-spectrophotometric method
Type: functional
Parameter: IC50

Compound	Parameter	Recorded Result
Cc1cc(C(C)(C)C)c(O)c(C(C)(C)C)c1 [BUTYLATED HYDROXYTOLUENE]	IC50	34 µM
CCCCCCCCCCCC(=O)OC(c1ccc(O)c(OC)c1)[C@H]1COC(=O)[C@@H]1Cc1ccc(O)c(OC)c1 (some centres not stated)	IC50	24.5 µM
COc1cc(C[C@H]2C(=O)OC[C@@H]2[C@H](O)c2ccc(O)c(OC)c2)ccc1O [HYDROXYMATAIRESINOL]	IC50	20 µM
CCCCCCCC(=O)OC(c1ccc(O)c(OC)c1)[C@H]1COC(=O)[C@@H]1Cc1ccc(O)c(OC)c1 (some centres not stated)	IC50	24.1 µM
O=C1O[C@H]([C@@H](O)CO)C(O)=C1O	IC50	20.3 µM
CCCCCCCCCCCCCCCCCC(=O)OC(c1ccc(O)c(OC)c1)[C@H]1COC(=O)[C@@H]1Cc1ccc(O)c(OC)c1 (some centres not stated)	IC50	25.2 µM
Cc1c(C)c2c(c(C)c1O)CC[C@@](C)(CCC[C@H](C)CCC[C@H](C)CCCC(C)C)O2 (racemic)	IC50	23.5 µM
